B1: library; numbered along this chain (parent)
chain: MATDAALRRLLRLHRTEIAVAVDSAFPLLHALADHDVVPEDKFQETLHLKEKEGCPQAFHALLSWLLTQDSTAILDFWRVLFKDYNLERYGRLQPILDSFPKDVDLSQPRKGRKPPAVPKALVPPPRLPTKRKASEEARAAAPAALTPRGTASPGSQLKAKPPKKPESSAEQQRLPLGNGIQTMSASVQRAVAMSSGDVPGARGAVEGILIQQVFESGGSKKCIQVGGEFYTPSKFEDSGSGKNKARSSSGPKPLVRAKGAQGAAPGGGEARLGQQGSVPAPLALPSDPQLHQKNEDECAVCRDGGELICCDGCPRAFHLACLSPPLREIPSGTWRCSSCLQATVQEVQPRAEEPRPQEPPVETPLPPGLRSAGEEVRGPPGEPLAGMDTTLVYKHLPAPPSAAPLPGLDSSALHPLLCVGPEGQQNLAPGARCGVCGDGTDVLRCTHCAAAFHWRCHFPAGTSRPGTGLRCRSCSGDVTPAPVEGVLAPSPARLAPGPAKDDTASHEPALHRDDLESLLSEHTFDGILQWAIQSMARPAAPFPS

variants of: B1; assay: AIRE transcriptional activation functional score (insulin promoter-GFP; nonsense median 0, synonymous median 1) (normalised score); higher = higher AIRE activity (more reporter activation); details: with insulin promoter-GFP reporter in HEK293
Measure name: AIRE transcriptional activation functional score
Please reply with the number alone, leaving off any unit.

Solved cases (10 shown):
INSERT INTO assay_data (changes, observed) VALUES
  ('R139L', 1.19),
  ('R356K', 0.935),
  ('N427S', 1.1),
  ('P407G', 1.07),
  ('E296I', 0.711),
  ('P542D', 0.633),
  ('L520G', 0.375),
  ('A373S', 0.969),
  ('T524S', 1.61),
  ('S99A', -0.293);

Consider the record given below.
IN: Recorded AIRE transcriptional activation functional score of F215S , please.
OUT: 0.474
